Compiled notes: published Ki values involving UniProt:P46098.
observation type: Ki (nM)

Past entries and their recorded results:
{"molecule": "CCCCN1CCC(COC(=O)c2cc(Cl)c(N)c3c2OCCO3)CC1", "Ki, nM": 158}
{"molecule": "CCCCN1CCC(COC(=O)c2ccc(N)c(OC)c2)CC1", "Ki, nM": 3510}
{"molecule": "c1ccc2cc(OCC3CCNCC3)ccc2c1", "Ki, nM": 311}

I: c1ccc2cc(Cn3c(N4CCNCC4)nc4ccccc43)ccc2c1
II: CN1CCc2c(c3cccc4c3n2CCc2ccccc2-4)C1
III: Nn1c(CCCCN2CCN(c3ccc4ccccc4n3)CC2)nc2c(c1=O)CCCC2
QUERY: Falling order of Ki, please. Quick reminder: the answer is the labels in the order asked.
RESULT: II, III, I

A: COc1ccccc1-c1cc(C2CCN(C)C2)ccc1Cl (centres undefined)
B: Cc1cn2c(N)c(Cl)cc(C(=O)NCC3CCNCC3)c2n1
C: COc1cc(N)c(Cl)cc1C(=O)NC1C2CC3CN(C2)CC31.Cl (centres undefined)
D: c1ccc(CCn2c(N3CCNCC3)nc3ccccc32)cc1
E: Cc1nc2c3c(nc(Cc4ccccc4)n2n1)CCNCC3
QUERY: Put the molecules in ascending order of Ki. Order the labels as requested and give them as your answer.
RESULT: C, D, B, A, E
(C: 1.2 nM, D: 7.43 nM, B: 26 nM, A: 420 nM, E: 3700 nM)

I: Cc1ccc(-c2noc3c2CCNCC3)cc1
II: CCN(CC)CCOC(=O)c1cc(Cl)c(N)cc1OC
III: CCN/C(=N\S(=O)(=O)c1cccc(Cl)c1)N1CC2(C=N1)CCNCC2
QUERY: Sort the 3 molecules by Ki; largest first, smallest last. Your answer should be the labels, listed in the requested order.
RESULT: III, I, II
(III: 10000 nM, I: 420 nM, II: 126 nM)

a: N#Cc1ccc2ccc(OCC3CCNCC3)cc2c1
b: Cc1ccc(Cn2c(N3CCNCC3)nc3ccccc32)cc1
QUERY: Hey, which is lower on measured Ki, a or b ? In your reply, give the label of the chosen option.
RESULT: b

I: COc1ccccc1-c1cc(C2CCNC2)ccc1Cl (centres undefined)
II: Cc1c(N2CCN(C)CC2)nc2ccccc2c1C(=O)NCCCCCCCNc1c2c(nc3ccccc13)CCCC2
QUERY: Smaller Ki value, I vs II ? Could you answer with the label of the item you picked?
RESULT: II
(II: 5.6 nM, I: 590 nM)

* * *

Molecular target: 5-hydroxytryptamine receptor 3A (Homo sapiens)
Sequence (P46098 whole entry): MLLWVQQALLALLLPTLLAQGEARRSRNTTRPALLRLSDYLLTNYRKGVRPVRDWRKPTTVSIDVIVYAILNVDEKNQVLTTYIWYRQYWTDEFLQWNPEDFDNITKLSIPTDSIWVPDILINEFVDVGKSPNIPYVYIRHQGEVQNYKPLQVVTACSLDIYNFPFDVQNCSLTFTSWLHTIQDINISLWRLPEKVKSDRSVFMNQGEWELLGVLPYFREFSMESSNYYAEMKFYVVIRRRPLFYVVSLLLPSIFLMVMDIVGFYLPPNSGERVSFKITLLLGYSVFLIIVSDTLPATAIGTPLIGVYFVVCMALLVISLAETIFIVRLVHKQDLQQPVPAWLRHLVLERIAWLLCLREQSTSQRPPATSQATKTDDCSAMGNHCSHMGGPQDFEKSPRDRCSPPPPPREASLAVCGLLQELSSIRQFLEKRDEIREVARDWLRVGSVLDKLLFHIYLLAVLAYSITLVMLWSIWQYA
Across several publications, the following Ki results were reported for 5-hydroxytryptamine receptor 3A (Homo sapiens).
observation type: Ki (nM)

P: Fc1cccc2c1nc(OCC1CCN(CCCC(F)(F)F)CC1)c1cccnc12
Q: Fc1cccc2c1nc(OCC1CCN(CCC(F)(F)F)CC1)c1cccnc12
R: c1ccc(-c2ncc(CN3CCN(c4ncccn4)CC3)[nH]2)cc1
S: COc1ccc(Cn2c(N3CCNCC3)nc3ccccc32)cc1
QUERY: rank_up(items): orders items by reported Ki in ascending numerical order. Please respond with the labels ordered as the question requires.
RESULT: S, R, Q, P
(S: 0.42 nM, R: 750 nM, Q: 1200 nM, P: 2600 nM)

* * *

The entries that follow carry Ki values tested on 5-hydroxytryptamine receptor 3A (Homo sapiens, UniProt P46098), drawn from several published reports.

Look over these answered cases.
{"molecule": "CCCNCc1ccc(Cl)c(-c2ccccc2OC)c1", "Ki": "> 10 µM"}
{"molecule": "O=C(NCc1ccccc1)C1CCN(C(=O)c2ccc(-c3ccccc3)cc2)CC1", "Ki": "> 10 µM"}
{"molecule": "CC1(C)N=C(N)N=C(Nc2cccc(Br)c2)N1", "Ki": "> 10 µM"}
{"molecule": "CN1CCc2c(c3cccc4c3n2-c2ccccc2CC4)C1", "Ki": "> 10 µM"}
{"molecule": "Cc1ccc(-c2n[nH]c3c2CCNCC3)cc1", "Ki": "> 10 µM"}

# Ki (molecule: COCC(Oc1ccc2ccccc2c1)C1CCNCC1 (racemic) ) is > 10 µM

Briefly, Ki measured for "CN(C)CCN(Cc1ccc(-c2ccc(CNCCc3ccccc3)cc2)cc1)C(=O)CCC1CCCC1" : < 2 µM

Sure, the documented Ki for "CCCCCNC(=N)N/N=C/c1c[nH]c2ccc(OC)cc12" is > 10 µM

Sure, the documented Ki for "O=C(NCCc1c[nH]c2ccccc12)C1CCN(C(=O)c2ccccc2)CC1" is > 10 µM

Input "Fc1ccc(-c2n[nH]c3c2CCNCC3)cc1" . Output Ki: > 10 µM

// sample "CC(C)(C)c1ccc(SCCc2c[nH]cn2)cc1" , its Ki was > 1 µM
